- Test system: Human B cells
- Procedure text: Human Primary B Cell Proliferation Assay (3H-thymidine incorporation, anti-human IgM stimulated)
- Type: cell-based
- Experimental conditions: B-cell, purified human B cells, 50 μg/mL anti-human IgM F(ab')2, 72 hours
Listing: IC50 of selected molecules
Measured quantity: IC50 (nM)

Molecule	Assay system	Measured
NC(=O)c1c(-c2ccc(Oc3ccc(F)cc3F)cc2)nn([C@@H]2CCCN(C(=O)/C=C/CF)C2)c1N [Example 145]	Human B cells	11.8
C=CC(=O)N1CCC[C@@H](n2nc(-c3ccc(Oc4ncc(Cl)cc4F)cc3)c(C(N)=O)c2N)C1 [Example 153]	Human B cells	0.56
NC(=O)c1c(-c2ccc(Oc3ccc(F)cc3F)cc2)nn([C@@H]2CCCN(C(=O)/C=C/CO)C2)c1N [Example 151]	Human B cells	0.22
NC(=O)c1c(-c2ccc(Oc3ccc(Cl)cn3)cc2)nn(C2CCCN(C(=O)/C=C/CF)C2)c1N (stereo not shown) [Example 160]	Human B cells	2.9

====

Listing: IC50 of selected compounds
- Assay system: human full-length BTK Kinase (Homo sapiens (Human), UniProt Q06187)
- Sequence (Q06187 whole entry): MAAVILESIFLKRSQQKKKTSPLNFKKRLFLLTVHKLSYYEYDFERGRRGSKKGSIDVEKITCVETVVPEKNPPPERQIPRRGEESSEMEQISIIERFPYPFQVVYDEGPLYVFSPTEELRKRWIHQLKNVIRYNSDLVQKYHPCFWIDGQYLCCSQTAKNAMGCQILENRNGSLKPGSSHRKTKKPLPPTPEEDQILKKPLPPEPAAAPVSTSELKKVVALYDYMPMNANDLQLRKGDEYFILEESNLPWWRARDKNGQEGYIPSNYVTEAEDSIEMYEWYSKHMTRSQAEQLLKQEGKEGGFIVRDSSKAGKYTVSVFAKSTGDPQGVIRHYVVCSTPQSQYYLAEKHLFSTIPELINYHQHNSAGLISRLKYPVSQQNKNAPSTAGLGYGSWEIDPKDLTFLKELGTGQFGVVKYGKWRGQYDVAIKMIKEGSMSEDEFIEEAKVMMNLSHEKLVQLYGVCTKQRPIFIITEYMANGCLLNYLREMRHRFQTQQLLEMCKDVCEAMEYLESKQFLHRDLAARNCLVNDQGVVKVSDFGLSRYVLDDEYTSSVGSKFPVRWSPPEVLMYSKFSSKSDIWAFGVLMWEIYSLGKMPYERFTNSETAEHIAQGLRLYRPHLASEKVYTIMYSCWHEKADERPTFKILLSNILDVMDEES

Compound	IC50
N#CN1CCCC(n2nc(-c3cccc(Oc4ccccc4)c3)c(C(N)=O)c2N)C1 (stereo not shown) [Example 89]	7.7 nM
Cc1ccc(Oc2ccc(-c3nn(C4CCCN(C#N)C4)c(N)c3C(N)=O)cc2)cc1C (stereo not shown) [Example 16]	1.28 nM
N#CN1CCC(n2nc(-c3ccc(Oc4ccccc4)cc3)c(C(N)=O)c2N)CC1	32.1 nM
N#CN1CCCC(n2nc(-c3ccc(Cc4ccccc4Cl)cc3)c(C(N)=O)c2N)C1 (stereo not shown)	2.7 nM
N#CN1CCCC(n2nc(-c3ccc(Oc4cccc(Cl)c4)cc3)c(C(N)=O)c2N)C1 (stereo not shown)	1.7 nM
COc1cc(F)ccc1Oc1ccc(-c2nn(C3CCCN(C#N)C3)c(N)c2C(N)=O)cc1 (stereo not shown)	1.6 nM
C[C@H]1CC[C@@H](n2nc(-c3ccc(Oc4ccc(F)cc4F)cc3)c(C(N)=O)c2N)CN1C#N [Example 122]	0.46 nM
Cc1cc(F)ccc1Oc1ccc(-c2nn(C3CCCN(C#N)C3)c(N)c2C(N)=O)cc1 (stereo not shown) [Example 32]	4.1 nM
Cc1ccc(Oc2ccc(-c3nn(C4CCCN(C#N)C4)c(N)c3C(N)=O)cc2)nc1 (single isomer, unassigned) [Example 113]	264 nM
COc1cccc(Oc2ccc(-c3nn(C4CCCN(C#N)C4)c(N)c3C(N)=O)cc2)c1 (stereo not shown)	0.44 nM
N#CN1CC2CC1CC2n1nc(-c2ccc(Oc3ccccc3)cc2)c(C(N)=O)c1N (stereo not shown)	5.9 nM
N#CN1CCCC(n2nc(-c3ccc(Oc4ccc(Cl)cn4)cc3)c(C(N)=O)c2N)C1 (single isomer, unassigned) [Example 109]	128 nM
Cc1ccc(Oc2cccc(-c3nn(C4CCCN(C#N)C4)c(N)c3C(N)=O)c2)cc1F (stereo not shown)	21.9 nM
Cc1cc(F)ccc1Oc1ccc(-c2nn(C3CCCN(C#N)C3)c(N)c2C(N)=O)cc1 (single isomer, unassigned) [Example 34]	3.8 nM
N#CN1CCC[C@H](n2nc(-c3ccc(Cc4ccccc4Cl)cc3)c(C(N)=O)c2N)C1	6.1 nM
C=CC(=O)N1CCC[C@@H](n2nc(-c3ccc(Oc4ccc(F)cc4F)cc3)c(C(N)=O)c2N)C1	0.25 nM

====

Please consider the recorded pIC50 for human full-length BTK Kinase (Homo sapiens (Human), UniProt Q06187) in what follows.
pIC50: −log10 of the molar value.
Measured quantity: pIC50

Compound	Assay system	Measured
N#CN1CCCC(n2nc(-c3ccc(Oc4cc(Cl)ccc4F)cc3)c(C(N)=O)c2N)C1 (stereo not drawn) [Example 49]	human full-length BTK Kinase (Homo sapiens (Human), UniProt Q06187)	8.66
N#CCN1CC2CC1CC2n1nc(-c2ccc(Oc3ccccc3)cc2)c(C(N)=O)c1N (stereo not drawn) [Example 12]	human full-length BTK Kinase (Homo sapiens (Human), UniProt Q06187)	7.27
N#CN1CC(n2nc(-c3ccc(Oc4ccccc4)cc3)c(C(N)=O)c2N)C1 [Example 9]	human full-length BTK Kinase (Homo sapiens (Human), UniProt Q06187)	7.63
C[C@H]1CC[C@@H](n2nc(-c3ccc(Oc4ccc(F)cc4F)cc3)c(C(N)=O)c2N)CN1C#N (relative stereo) [Example 121]	human full-length BTK Kinase (Homo sapiens (Human), UniProt Q06187)	8.00
N#CN1CCCC(n2nc(-c3ccc(Oc4cc(F)cc(Cl)c4)cc3)c(C(N)=O)c2N)C1 (stereo not drawn) [Example 51]	human full-length BTK Kinase (Homo sapiens (Human), UniProt Q06187)	8.72
NC(=O)c1c(-c2ccc(Oc3ccc(Cl)cc3)cc2)nn([C@@H]2CCCN(C(=O)/C=C/C(F)F)C2)c1N [Example 133]	human full-length BTK Kinase (Homo sapiens (Human), UniProt Q06187)	9.42
N#CN1CCCC(n2nc(-c3ccc(Oc4c(F)cccc4Cl)cc3)c(C(N)=O)c2N)C1 (stereo not drawn) [Example 63]	human full-length BTK Kinase (Homo sapiens (Human), UniProt Q06187)	8.31
Cc1cc(Oc2cccc(-c3nn(C4CCCN(C#N)C4)c(N)c3C(N)=O)c2)ccc1Cl (stereo not drawn) [Example 99]	human full-length BTK Kinase (Homo sapiens (Human), UniProt Q06187)	7.81
C[C@H](O)/C=C/C(=O)N1CCC[C@@H](n2nc(-c3ccc(Oc4ccc(F)cc4F)cc3)c(C(N)=O)c2N)C1 [Example 148]	human full-length BTK Kinase (Homo sapiens (Human), UniProt Q06187)	7.41
N#CN1CCCC(n2nc(-c3ccc(Oc4ccc(F)c(OC(F)(F)F)c4)cc3)c(C(N)=O)c2N)C1 (stereo not drawn) [Example 46]	human full-length BTK Kinase (Homo sapiens (Human), UniProt Q06187)	8.19
N#CN1CCC(n2nc(-c3ccc(Oc4ccccc4)cc3)c(C(N)=O)c2N)C1 (stereo not drawn) [Example 7]	human full-length BTK Kinase (Homo sapiens (Human), UniProt Q06187)	7.79
N#CN1CCCC(n2nc(-c3ccc(Oc4ccc(Cl)cc4Cl)cc3)c(C(N)=O)c2N)C1 (stereo not drawn) [Example 50]	human full-length BTK Kinase (Homo sapiens (Human), UniProt Q06187)	8.74
N#CN1CCCC(n2nc(-c3ccc(Oc4ccccc4)cc3)c(C(N)=O)c2N)C1 (single isomer, unassigned) [Example 3]	human full-length BTK Kinase (Homo sapiens (Human), UniProt Q06187)	8.48
N#CN1CCCC(n2nc(-c3ccc(Cc4ccccc4)cc3)c(C(N)=O)c2N)C1 (stereo not drawn) [Example 67]	human full-length BTK Kinase (Homo sapiens (Human), UniProt Q06187)	8.62
N#CN1CCCC(n2nc(-c3ccc(Oc4ccccc4C(F)(F)F)cc3)c(C(N)=O)c2N)C1 (stereo not drawn) [Example 52]	human full-length BTK Kinase (Homo sapiens (Human), UniProt Q06187)	8.54
NC(=O)c1c(-c2ccc(Oc3ccc(Cl)cc3)cc2)nn([C@@H]2CCCN(C(=O)/C=C/CO)C2)c1N [Example 131]	human full-length BTK Kinase (Homo sapiens (Human), UniProt Q06187)	8.64
Cc1cc(Oc2cccc(-c3nn(C4CCCN(C#N)C4)c(N)c3C(N)=O)c2)ccc1C(C)C (stereo not drawn) [Example 101]	human full-length BTK Kinase (Homo sapiens (Human), UniProt Q06187)	8.28
N#CN1CCCC(n2nc(-c3ccc(Oc4ccccc4)cc3)c(C(N)=O)c2N)C1 (single isomer, unassigned) [Example 2]	human full-length BTK Kinase (Homo sapiens (Human), UniProt Q06187)	9.43
NC(=O)c1c(-c2ccc(Oc3ccc(F)cc3F)cc2)nn([C@@H]2CCCN(C(=O)/C=C/CF)C2)c1N [Example 145]	human full-length BTK Kinase (Homo sapiens (Human), UniProt Q06187)	8.55
N#CN1CCOCC(n2nc(-c3ccc(Oc4ccccc4)cc3)c(C(N)=O)c2N)C1 (stereo not drawn) [Example 10]	human full-length BTK Kinase (Homo sapiens (Human), UniProt Q06187)	7.87
N#CN1CCCC(n2nc(-c3ccc(Oc4ccccc4Cl)cc3)c(C(N)=O)c2N)C1 (stereo not drawn) [Example 56]	human full-length BTK Kinase (Homo sapiens (Human), UniProt Q06187)	8.89
NC(=O)c1c(-c2ccc(Oc3ccc(F)cc3F)cc2)nn([C@@H]2CCCN(C(=O)/C(F)=C/CO)C2)c1N [Example 146]	human full-length BTK Kinase (Homo sapiens (Human), UniProt Q06187)	7.32
N#CN1CCCC(n2nc(-c3ccc(Oc4ccc(F)c(C(F)(F)F)c4)cc3)c(C(N)=O)c2N)C1 (stereo not drawn) [Example 64]	human full-length BTK Kinase (Homo sapiens (Human), UniProt Q06187)	8.06
Cc1ccc(Oc2ccc(-c3nn(C4CCCN(C#N)C4)c(N)c3C(N)=O)cc2)cc1 (stereo not drawn) [Example 42]	human full-length BTK Kinase (Homo sapiens (Human), UniProt Q06187)	8.92
N#CN1CCCC(n2nc(-c3ccc(Oc4ccc(Cl)cn4)cc3)c(C(N)=O)c2N)C1 (stereo not drawn) [Example 108]	human full-length BTK Kinase (Homo sapiens (Human), UniProt Q06187)	8.11
N#CN1CCCC(n2nc(-c3ccc(Cc4ccccc4F)cc3)c(C(N)=O)c2N)C1 (stereo not drawn) [Example 74]	human full-length BTK Kinase (Homo sapiens (Human), UniProt Q06187)	9.00
N#CN1CCCC(n2nc(-c3ccc(Oc4ccc(F)cc4F)cc3)c(C(N)=O)c2N)C1 (single isomer, unassigned) [Example 27]	human full-length BTK Kinase (Homo sapiens (Human), UniProt Q06187)	8.89
N#CN1CCC[C@H](n2nc(-c3ccc(Oc4cccc(C(F)(F)F)n4)cc3)c(C(N)=O)c2N)C1 [Example 117]	human full-length BTK Kinase (Homo sapiens (Human), UniProt Q06187)	7.72
NC(=O)c1c(-c2ccc(Oc3ccc(F)cc3F)cc2)nn([C@@H]2CCCN(C(=O)/C=C/C(F)F)C2)c1N [Example 144]	human full-length BTK Kinase (Homo sapiens (Human), UniProt Q06187)	9.39
N#CN1CCCC(n2nc(-c3ccc(Oc4ccc(Cl)cc4)cc3)c(C(N)=O)c2N)C1 (single isomer, unassigned) [Example 15]	human full-length BTK Kinase (Homo sapiens (Human), UniProt Q06187)	9.19
